- test-target: Glycogen synthase kinase-3 beta (Homo sapiens)
- test-protocol: Inhibition of recombinant human full length His-tagged GSK3beta expressed in baculovirus expression system at 1 uM relative to control
property-label: inhibition (%)

1) COc1cc(C)c(C(N)=O)cc1C(=O)Nc1cccc(-c2nncn2C(C)C)n1 = 7
2) COc1ccc(C(N)=O)cc1C(=O)Nc1cccc(-c2nncn2C(C)C)n1 = 0

P. COc1ccc(S(N)(=O)=O)cc1C(=O)Nc1cccc(-c2nncn2C(C)C)n1
Q. COc1ccc(S(C)(=O)=O)cc1C(=O)Nc1cccc(-c2nncn2C(C)C)n1
R. COc1cc(C)c(S(C)(=O)=O)cc1C(=O)Nc1cccc(-c2nncn2C(C)C)n1
S. COc1cc(C)c(S(N)(=O)=O)cc1C(=O)Nc1cccc(-c2nncn2C(C)C)n1
Task: Endpoint returns the given compounds ordered by ascending inhibition. Please list the labels in the order you were asked to rank them.
Result: Q, P, R, S

###

- test-target: Serine/threonine-protein kinase TAO2 (Homo sapiens) (UniProt Q9UL54)
- Sequence (Q9UL54 whole entry): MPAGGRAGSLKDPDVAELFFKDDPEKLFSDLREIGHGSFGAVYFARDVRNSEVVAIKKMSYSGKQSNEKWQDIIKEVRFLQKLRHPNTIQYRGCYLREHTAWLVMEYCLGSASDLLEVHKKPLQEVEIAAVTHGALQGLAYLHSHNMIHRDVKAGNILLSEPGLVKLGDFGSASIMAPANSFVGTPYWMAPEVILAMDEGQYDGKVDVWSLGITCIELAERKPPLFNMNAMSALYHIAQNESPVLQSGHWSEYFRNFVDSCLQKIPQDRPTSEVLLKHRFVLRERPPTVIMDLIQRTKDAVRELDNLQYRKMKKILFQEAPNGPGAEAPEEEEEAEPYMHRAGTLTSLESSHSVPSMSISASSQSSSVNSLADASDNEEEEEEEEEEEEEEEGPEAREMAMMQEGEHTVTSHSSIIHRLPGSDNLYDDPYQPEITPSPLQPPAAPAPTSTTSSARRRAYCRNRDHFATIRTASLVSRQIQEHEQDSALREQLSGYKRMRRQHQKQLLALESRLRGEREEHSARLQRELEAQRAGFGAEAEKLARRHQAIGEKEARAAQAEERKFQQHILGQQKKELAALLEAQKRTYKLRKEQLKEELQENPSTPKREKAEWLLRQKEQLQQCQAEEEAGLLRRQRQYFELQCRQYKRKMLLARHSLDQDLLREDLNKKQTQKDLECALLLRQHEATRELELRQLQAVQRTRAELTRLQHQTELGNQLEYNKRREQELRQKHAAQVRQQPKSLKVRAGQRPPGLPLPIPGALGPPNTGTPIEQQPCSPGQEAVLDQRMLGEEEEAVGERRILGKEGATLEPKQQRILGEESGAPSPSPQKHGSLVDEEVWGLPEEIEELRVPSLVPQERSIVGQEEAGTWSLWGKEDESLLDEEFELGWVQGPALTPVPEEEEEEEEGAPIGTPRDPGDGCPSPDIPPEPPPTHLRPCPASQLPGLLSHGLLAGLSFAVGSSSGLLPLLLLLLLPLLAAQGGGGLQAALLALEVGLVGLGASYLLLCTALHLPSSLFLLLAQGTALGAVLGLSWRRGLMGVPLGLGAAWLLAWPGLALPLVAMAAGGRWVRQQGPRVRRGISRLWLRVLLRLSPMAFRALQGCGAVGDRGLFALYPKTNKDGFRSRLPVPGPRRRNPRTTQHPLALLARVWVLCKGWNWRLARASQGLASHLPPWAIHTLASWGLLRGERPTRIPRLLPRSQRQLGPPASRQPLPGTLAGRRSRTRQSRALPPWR
- test-protocol: Inhibition of recombinant human GST-tagged TAOK2 expressed in baculovirus expression system at 1 uM relative to control
property-label: inhibition (%)

For orientation, consider the following solved cases.
1. COc1cc(C)c(C(N)=O)cc1C(=O)Nc1cccc(-c2nncn2C(C)C)n1 = 17
2. COc1ccc(C(N)=O)cc1C(=O)Nc1cccc(-c2nncn2C(C)C)n1 = 11
3. COc1ccc(S(N)(=O)=O)cc1C(=O)Nc1cccc(-c2nncn2C(C)C)n1 = -1
4. COc1cc(C)c(S(C)(=O)=O)cc1C(=O)Nc1cccc(-c2nncn2C(C)C)n1 = 2

P. COc1cc(C)c(S(N)(=O)=O)cc1C(=O)Nc1cccc(-c2nncn2C(C)C)n1
Q. COc1ccc(S(C)(=O)=O)cc1C(=O)Nc1cccc(-c2nncn2C(C)C)n1
Task: Consider P and Q . Which of these has its inhibition at a higher number? Select an item and report its label.
Result: Q
(Q: 0%, P: -3%)

###

- test-protocol: Oral bioavailability in rat at 1 mg/kg administered via gavage
- Assay type: ADME, organism-based
- settings: in vivo
property-label: bioavailability (%)
Dear colleague, please return just the value in %, with no unit written.

The compound listed as COc1ccc(S(C)(=O)=O)cc1C(=O)Nc1cccc(-c2nncn2C(C)C)n1 shows bioavailability equal to 8

###

- test-target: Tyrosine-protein kinase JAK3 (Homo sapiens) (UniProt P52333)
- Sequence (whole entry): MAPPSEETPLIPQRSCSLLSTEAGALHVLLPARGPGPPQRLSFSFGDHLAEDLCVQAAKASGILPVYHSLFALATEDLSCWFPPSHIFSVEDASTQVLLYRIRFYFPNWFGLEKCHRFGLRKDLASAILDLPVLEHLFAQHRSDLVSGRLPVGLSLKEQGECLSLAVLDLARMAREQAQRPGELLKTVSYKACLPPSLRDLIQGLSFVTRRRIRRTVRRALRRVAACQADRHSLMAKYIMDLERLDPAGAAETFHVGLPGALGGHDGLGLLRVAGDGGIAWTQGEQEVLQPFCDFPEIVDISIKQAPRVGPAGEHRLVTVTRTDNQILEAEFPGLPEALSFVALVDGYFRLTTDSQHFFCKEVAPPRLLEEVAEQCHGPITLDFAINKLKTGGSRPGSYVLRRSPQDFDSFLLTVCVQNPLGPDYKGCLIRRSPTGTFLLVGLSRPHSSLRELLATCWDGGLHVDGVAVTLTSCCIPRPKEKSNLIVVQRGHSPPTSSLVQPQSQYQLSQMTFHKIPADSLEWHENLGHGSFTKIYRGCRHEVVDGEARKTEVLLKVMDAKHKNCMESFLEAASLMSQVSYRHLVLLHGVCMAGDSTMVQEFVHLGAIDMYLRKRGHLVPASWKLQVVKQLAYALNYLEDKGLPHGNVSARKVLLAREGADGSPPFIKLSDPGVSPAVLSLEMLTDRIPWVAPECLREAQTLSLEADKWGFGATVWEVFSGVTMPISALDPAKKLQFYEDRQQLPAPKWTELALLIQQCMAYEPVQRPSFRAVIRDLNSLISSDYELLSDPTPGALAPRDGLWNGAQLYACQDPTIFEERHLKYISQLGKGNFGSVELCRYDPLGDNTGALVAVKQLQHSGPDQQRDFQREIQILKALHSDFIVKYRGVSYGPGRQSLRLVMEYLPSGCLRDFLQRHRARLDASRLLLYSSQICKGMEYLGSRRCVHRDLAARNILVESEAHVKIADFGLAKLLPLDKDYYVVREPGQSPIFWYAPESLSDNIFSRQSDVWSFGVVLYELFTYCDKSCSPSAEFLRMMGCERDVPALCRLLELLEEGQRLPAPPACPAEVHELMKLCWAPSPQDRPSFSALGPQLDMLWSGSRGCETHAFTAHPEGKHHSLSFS
- test-protocol: Inhibition of recombinant human GST-tagged JAK3 expressed in baculovirus expression system at 1 uM relative to control
property-label: inhibition (%)

For orientation, consider the following solved cases.
1) COc1cc(C)c(C(N)=O)cc1C(=O)Nc1cccc(-c2nncn2C(C)C)n1 = 3
2) COc1ccc(S(N)(=O)=O)cc1C(=O)Nc1cccc(-c2nncn2C(C)C)n1 = -8
3) COc1ccc(S(C)(=O)=O)cc1C(=O)Nc1cccc(-c2nncn2C(C)C)n1 = 12

I. COc1cc(C)c(S(C)(=O)=O)cc1C(=O)Nc1cccc(-c2nncn2C(C)C)n1
II. COc1cc(C)c(S(N)(=O)=O)cc1C(=O)Nc1cccc(-c2nncn2C(C)C)n1
Task: Hey, which is lower on measured inhibition, I or II ? Select an item and report its label.
Result: I
(I: 0%, II: 16%)

###

- test-target: cAMP-dependent protein kinase catalytic subunit alpha (Homo sapiens)
- test-protocol: Inhibition of recombinant human His-tagged PRKACA expressed in Escherichia coli at 1 uM relative to control
property-label: inhibition (%)

1) COc1ccc(S(C)(=O)=O)cc1C(=O)Nc1cccc(-c2nncn2C(C)C)n1 = -5
2) COc1ccc(C(N)=O)cc1C(=O)Nc1cccc(-c2nncn2C(C)C)n1 = -1
3) COc1cc(C)c(S(N)(=O)=O)cc1C(=O)Nc1cccc(-c2nncn2C(C)C)n1 = 1

1. COc1cc(C)c(C(N)=O)cc1C(=O)Nc1cccc(-c2nncn2C(C)C)n1
2. COc1cc(C)c(S(C)(=O)=O)cc1C(=O)Nc1cccc(-c2nncn2C(C)C)n1
Task: Consider 1 and 2 . Which of these has its inhibition at a higher number? Select an item and report its label.
Result: 2
(2: 3%, 1: -1%)

###

- test-target: High affinity nerve growth factor receptor (Homo sapiens)
- test-protocol: Inhibition of recombinant human His-tagged NTRK1 (526 to 838 residues) expressed in baculovirus expression system at 1 uM relative to control
property-label: inhibition (%)

For orientation, consider the following solved cases.
1. COc1ccc(S(N)(=O)=O)cc1C(=O)Nc1cccc(-c2nncn2C(C)C)n1 = 20
2. COc1cc(C)c(S(C)(=O)=O)cc1C(=O)Nc1cccc(-c2nncn2C(C)C)n1 = -3
3. COc1ccc(C(N)=O)cc1C(=O)Nc1cccc(-c2nncn2C(C)C)n1 = 12

1. COc1ccc(S(C)(=O)=O)cc1C(=O)Nc1cccc(-c2nncn2C(C)C)n1
2. COc1cc(C)c(S(N)(=O)=O)cc1C(=O)Nc1cccc(-c2nncn2C(C)C)n1
3. COc1cc(C)c(C(N)=O)cc1C(=O)Nc1cccc(-c2nncn2C(C)C)n1
Task: Please rank these compounds by inhibition in descending order. Please list the labels in the order you were asked to rank them.
Result: 1, 3, 2

###

- test-protocol: Permeability of the compound in RRCK cells
- Assay type: ADME, cell-based, Canis lupus familiaris, MDCKII-LE
- settings: dog, MDCK; read-out: permeability
property-label: Papp (×10⁻⁶ cm/s)

For orientation, consider the following solved cases.
1) COc1ccc(C(N)=O)cc1C(=O)Nc1cccc(-c2nncn2C(C)C)n1 = 3.5
2) COc1ccc(S(C)(=O)=O)cc1C(=O)Nc1cccc(-c2nncn2C(C)C)n1 = 7.9
3) COc1cc(C)c(C(N)=O)cc1C(=O)Nc1cccc(-c2nncn2C(C)C)n1 = 3.5
4) CNC(=O)c1ccc(OC)c(C(=O)Nc2cccc(-c3nncn3C(C)C)n2)c1 = 9.8

I. COc1cc(C)c(S(C)(=O)=O)cc1C(=O)Nc1cccc(-c2nncn2C(C)C)n1
II. COc1cc(C)c(S(N)(=O)=O)cc1C(=O)Nc1cccc(-c2nncn2C(C)C)n1
Task: Hey, which is lower on measured Papp, I or II ? Select an item and report its label.
Result: II
(II: 2.3 ×10⁻⁶ cm/s, I: 7.2 ×10⁻⁶ cm/s)

###

- test-target: UniProt:P06213
- Sequence (P06213 28-758 limits assumed): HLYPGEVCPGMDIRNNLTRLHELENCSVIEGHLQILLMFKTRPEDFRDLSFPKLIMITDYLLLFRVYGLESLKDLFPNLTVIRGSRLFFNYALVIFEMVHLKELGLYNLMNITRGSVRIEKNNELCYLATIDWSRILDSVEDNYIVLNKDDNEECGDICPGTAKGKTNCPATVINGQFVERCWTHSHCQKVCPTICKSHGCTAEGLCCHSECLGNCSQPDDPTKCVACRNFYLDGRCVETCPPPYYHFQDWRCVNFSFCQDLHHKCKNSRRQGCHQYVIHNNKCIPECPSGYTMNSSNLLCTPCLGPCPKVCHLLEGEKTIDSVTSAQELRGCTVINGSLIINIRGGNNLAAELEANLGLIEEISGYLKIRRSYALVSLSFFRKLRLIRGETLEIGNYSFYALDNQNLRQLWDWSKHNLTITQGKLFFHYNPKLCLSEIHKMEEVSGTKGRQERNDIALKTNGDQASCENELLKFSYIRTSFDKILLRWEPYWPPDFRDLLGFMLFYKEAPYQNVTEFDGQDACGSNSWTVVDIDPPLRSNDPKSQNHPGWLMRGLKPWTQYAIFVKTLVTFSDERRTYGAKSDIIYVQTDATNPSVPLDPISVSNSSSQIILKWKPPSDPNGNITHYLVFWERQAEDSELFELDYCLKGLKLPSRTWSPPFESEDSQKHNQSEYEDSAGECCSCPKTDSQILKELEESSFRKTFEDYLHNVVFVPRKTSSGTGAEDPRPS
- Sequence (P06213 763-1382 limits assumed): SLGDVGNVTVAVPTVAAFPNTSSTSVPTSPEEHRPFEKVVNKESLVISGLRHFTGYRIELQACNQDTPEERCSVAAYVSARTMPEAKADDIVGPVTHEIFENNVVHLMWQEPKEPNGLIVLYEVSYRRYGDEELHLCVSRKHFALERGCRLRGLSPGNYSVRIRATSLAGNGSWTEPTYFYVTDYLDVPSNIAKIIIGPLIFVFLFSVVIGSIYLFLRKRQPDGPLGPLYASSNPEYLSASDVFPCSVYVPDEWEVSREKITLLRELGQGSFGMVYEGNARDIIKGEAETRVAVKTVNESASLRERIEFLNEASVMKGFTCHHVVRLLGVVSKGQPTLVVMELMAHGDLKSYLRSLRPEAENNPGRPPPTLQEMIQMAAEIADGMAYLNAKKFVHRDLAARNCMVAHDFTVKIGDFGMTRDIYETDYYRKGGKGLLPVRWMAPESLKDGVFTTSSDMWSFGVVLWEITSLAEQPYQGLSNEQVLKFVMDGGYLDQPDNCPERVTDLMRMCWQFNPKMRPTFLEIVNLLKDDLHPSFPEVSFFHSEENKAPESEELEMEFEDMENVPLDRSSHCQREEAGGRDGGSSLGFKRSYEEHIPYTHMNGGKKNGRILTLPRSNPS
- test-protocol: Inhibition of recombinant human GST-tagged INSR cytoplasmic domain expressed in baculovirus expression system at 1 uM relative to control
property-label: inhibition (%)

1) COc1cc(C)c(C(N)=O)cc1C(=O)Nc1cccc(-c2nncn2C(C)C)n1 = -2

I. COc1ccc(S(N)(=O)=O)cc1C(=O)Nc1cccc(-c2nncn2C(C)C)n1
II. COc1ccc(C(N)=O)cc1C(=O)Nc1cccc(-c2nncn2C(C)C)n1
III. COc1cc(C)c(S(N)(=O)=O)cc1C(=O)Nc1cccc(-c2nncn2C(C)C)n1
Task: Endpoint returns the given compounds ordered by ascending inhibition. Please list the labels in the order you were asked to rank them.
Result: III, I, II
(III: -2%, I: -1%, II: 6%)
